Biological target: Glucose transporter (Leishmania mexicana)
Experiment: ST_JUDE_LEISH: Cytotoxicity at 2uM final concentration against transgenic Leishmania Mexicana promastigotes LmGT2 that are glucose transport deficient and complemented with the L. Mexicana glucose transporter 2. Activity is measured by DNA content using SYBR green in vitro
Type: functional
So I've got a bunch of compounds here, and I need their inhibition values.
Give bare numbers, in %.

• Cc1ccc(NC(=O)c2ccc3nccnc3c2)cc1OC1CCN(Cc2ccc(F)cc2)CC1 = 10.5
• CC[C@H](C)CNC(=O)c1cncc(-c2ccc(CNC3CCCC3)cc2)c1 = 1.7
• O=C(/C=C/c1ccc([N+](=O)[O-])cc1)N1CCC(CCN2CCC(c3c[nH]c4ccccc34)CC2)CC1 = 2.47

Can you give me inhibition for all of these, one by one?
1. O=C(Nc1ccccc1)OCCOc1ccc(CC2SC(=O)NC2=O)cc1 (configuration not stated)
2. COc1ccc(CN(C)CCCc2ccc(NC(=O)c3cccc4c(=O)c5cccc(F)c5[nH]c34)cc2)cc1OC
3. O=C(Cn1c(CCc2cccc(F)c2F)cc(=O)c2ccccc21)N(CCN1CCCCC1)Cc1ccc(-c2ccc(C(F)(F)F)cc2)cc1
4. O=C(Cn1c(CCc2cccc(F)c2F)nc(=O)c2ccccc21)N(Cc1ccc(-c2ccc(C(F)(F)F)cc2)cc1)C1CCN(C2CCOCC2)CC1
5. CCCCNCc1ccc(-c2nc(CN(C(=O)Nc3cc([N+](=O)[O-])ccc3F)C3Cc4ccccc4C3)cs2)cc1
6. O=C(NCC1CCN(Cc2cccc(C(F)(F)F)c2)C1)c1cc(-c2cccc(F)c2)cs1 (configuration not stated)

Reply |
2.23
10.1
3.76
1.17
4.78
5.45

For each entry beneath this line, provide reported inhibition.
1. CC(C)N(Cc1ccc(-c2ccc(C(F)(F)F)cc2)cc1)C(=O)Cn1c(SCc2cccc(F)c2F)cc(=O)c2cc(CN3CCCCC3)ccc21
2. CCCCCCCN1CC[C@@H](CCCc2ccnc3ccc(OCC4CCCNC4)cc23)[C@@H](CC)C1 (some centres not stated)
3. Cc1c2c(nn1-c1ccccc1)C(c1ccccc1)N(c1ccccc1)C2=O (configuration not stated)
4. CCN(CC)CCN(Cc1ccc(-c2ccc(C(F)(F)F)cc2)cc1)C(=O)Cn1c(CCc2ccc(F)c(F)c2)nc(=O)c2ccccc21
5. CC(=O)Nc1ccc(CNC2Cc3ccc(-c4ccc(Cl)c(Cl)c4)cc3C2)cc1 (configuration not stated)

Reply |
[3.27, 1.43, 0.75, 1.08, -0.25]

---

Molecular target: Solute carrier family 2, facilitated glucose transporter member 1 (Homo sapiens)
Experiment: ST_JUDE_LEISH: Cytotoxicity at 2uM final concentration against transgenic Leishmania Mexicana promastigotes LmGLUT1 that are glucose transport deficient and complemented with the human glucose transporter GLUT1. Activity is measured by DNA content using SYBR green in vitro
Format: functional
So I've got a bunch of compounds here, and I need their inhibition values.
Numbers only, in %.

• COc1cc2c(cc1OC)C(c1ccc(Br)cc1)CN(C)CC2 (stereo not given) = 1.39

Give measured inhibition for every item shown.
1. CN1CCN(c2cc3c(cc2Cl)CCN3C(=O)Cc2ccc(Cl)c(NC(=O)Nc3cccc(C#N)c3)c2)CC1
2. Cc1ccc(-c2cc(C(=O)Nc3ccc(S(=O)(=O)N(C)Cc4ccccc4)cc3)[nH]n2)c(O)c1
3. O=C(Nc1cccc(OCCN2CCCC2)c1)Nc1ccc(Cl)c(Cl)c1
4. Cc1cc(-c2ccc3c(c2)CCN(CCC2CCC(NC(=O)/C=C/c4cccc(Cl)c4)CC2)CC3)on1 (stereo not given)
5. OC1CCCN(Cc2ccc(-c3cccc(-c4nc5cc(F)ccc5[nH]4)c3)cc2)C1 (stereo not given)
6. CCOC(=O)c1nc(-c2ccccc2)[nH]c1-n1nc(C)cc1C
7. COc1ccc2c(NN=Cc3cccc(C)n3)ccnc2c1
8. C=C[C@]1(C)C[C@@H](OC(=O)NC(=O)CCCS(=O)(=O)c2nnc(C)s2)[C@]2(C)[C@H](C)CC[C@]3(CCC(=O)[C@H]32)[C@@H](C)[C@@H]1O

Reply |
1. -0.57
2. 0.95
3. 1.92
4. 4.19
5. 7.7
6. 1.44
7. 4.32
8. 11.1

These measurements were taken from ChEMBL document CHEMBL3433997.
